Molecular target: T1, Fc-CLEC1 labelled with Alexa Fluor 488 (human, Alexa Fluor 488 label (sites not given))
T1 construct: also called Fc-CLEC1-A488; Alexa488-Fc-Clec-1
T1 chain: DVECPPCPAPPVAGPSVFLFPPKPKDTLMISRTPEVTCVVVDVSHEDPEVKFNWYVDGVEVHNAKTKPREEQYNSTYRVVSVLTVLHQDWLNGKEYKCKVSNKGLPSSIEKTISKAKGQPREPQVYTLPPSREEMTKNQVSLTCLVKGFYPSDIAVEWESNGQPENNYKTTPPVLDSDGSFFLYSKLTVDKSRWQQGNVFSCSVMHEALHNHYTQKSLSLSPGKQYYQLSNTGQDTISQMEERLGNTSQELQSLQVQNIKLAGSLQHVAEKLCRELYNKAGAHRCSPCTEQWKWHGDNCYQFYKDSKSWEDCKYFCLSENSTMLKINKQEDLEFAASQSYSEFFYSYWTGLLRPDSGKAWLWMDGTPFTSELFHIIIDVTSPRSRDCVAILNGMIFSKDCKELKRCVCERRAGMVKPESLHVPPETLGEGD
Assay: FACS competition: blocks Fc-CLEC1-A488 (20 nM) binding to CLEC-1 ligand on permeabilised Raji cells; read-out Mean
Procedure: Methods. To measure competition on permeabilised Raji (CytoFix/cytoperm kit, BD Biosciences) which expressed CLEC1 ligand, Fc-CLEC1-labelled A488 which bound specifically to permeabilised Raji was used. To measure competition, Fc-CLEC1 labelled A488 at 10 nM or 20 nM was mixed with mouse anti-hCLEC1 at different concentrations for 15 min at RT then added on these cells for 30 min at 4° C. […]
value.kind: IC50
Answer format reminder: number followed by unit.

According to the records, this binder murine anti-hCLEC1 antibody 10F4-H2 (antibody, V domains shown, Mouse hybridoma antibody) VH: QVQLQQSGTELARPGASVKMSCKASGYIFTDYTIHWVKQRPGQGLEWVGYINPSSGYTNYNQKFKAKATLTADKSSSTAYMQLSSLTSEDSAVYYCTPMFRRSYFDYWGQGTTLTVSS VL: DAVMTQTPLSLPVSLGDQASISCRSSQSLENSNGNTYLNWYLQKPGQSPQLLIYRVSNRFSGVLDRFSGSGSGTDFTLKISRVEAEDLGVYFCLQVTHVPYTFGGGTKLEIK displays IC50 of 2.5 µg/mL

The measured values listed here are drawn from patent US20230331852A1.
